- study target: GATA4/NKX2-5 (Mus musculus) (UniProt Q08369+P42582)
- test: Enhancement of mouse GATA4/mouse NKX2-5 protein-protein interaction expressed in Chlorocebus aethiops COS1 cells harboring 3xHA reporter gene assessed as transcriptional synergy at 10 uM after 24 hrs by luciferase reporter gene assay relative to control
- Format: cell-based
readout: Activity
Note: state the figure and append the unit.

Recorded Activity, per entry:
> print(dat)
                                   molecule   readout  assay.value
1  Cc1onc(-c2ccccc2)c1NC(=O)c1ccc(N2CCN(C)CC2)cc1  Activity         120%
2       CCN(CC)c1ccc(NC(=O)c2csc3nnsc23)cc1  Activity         130%
3      CCN(CC)c1ccc(NC(=O)c2cnc3ncccn23)cc1  Activity         140%
4  Cc1onc(-c2ccccc2)c1C(=O)N(C1=NC(C)CS1)c1ccc(Cl)cc1 (stereo not given)  Activity         170%
5  CC(C)c1ccc(NC(=O)c2noc3c2CCc2sccc2-3)cc1  Activity         130%

query: Requested read-out: Activity. Entry: `CC(=O)c1ccc(NC(=O)c2cc(-c3ccco3)on2)cc1`
result: 130%

query: Requested read-out: Activity. Entry: `CCN(CC)c1ccc(NC(=O)c2cnoc2C2CC2)cc1`
result: 140%

query: Requested read-out: Activity. Entry: CCC(C)NC(=O)c1cc(-c2ccco2)on1 (stereo not given)
result: 140%

query: Requested read-out: Activity. Entry: `Cc1onc(-c2ccccc2)c1COc1ccc(C(=O)O)cc1`
result: 120%

query: Requested read-out: Activity. Entry: `Cc1onc(-c2ccccc2)c1C(=O)N(C)c1ccc(C(=O)O)cc1`
result: 130%
